Sourced from patent US9783488B2

Below is a list of entries, each paired with its recorded pIC50 value.
studyTarget: human catalytic domain HDAC4 protein (amino acids 648-1032) (Homo sapiens (Human), UniProt P56524)
Sequence (P56524 648-1032): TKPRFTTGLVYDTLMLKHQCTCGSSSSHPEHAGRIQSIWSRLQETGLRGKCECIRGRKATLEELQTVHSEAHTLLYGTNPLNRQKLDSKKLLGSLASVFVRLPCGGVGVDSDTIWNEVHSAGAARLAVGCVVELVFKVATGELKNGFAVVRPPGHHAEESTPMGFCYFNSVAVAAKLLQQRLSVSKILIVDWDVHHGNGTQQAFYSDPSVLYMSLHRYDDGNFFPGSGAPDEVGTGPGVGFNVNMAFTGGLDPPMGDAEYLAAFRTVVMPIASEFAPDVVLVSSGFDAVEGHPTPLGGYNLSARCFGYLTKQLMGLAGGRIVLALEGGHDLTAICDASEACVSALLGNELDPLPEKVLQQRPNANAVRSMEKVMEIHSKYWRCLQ
The read-out pIC50 is expressed as -log10 of concentration in moles per litre.

Take a look at these entries with their results.
>  <molecule>
Cc1c(F)cccc1[C@]1(C(=O)NO)CC[C@H](c2ccc(F)cn2)C1 (relative stereo) [Example 11]

>  <pIC50>
6.70

$$$$
>  <molecule>
O=C(NO)C1(c2cccc(F)c2F)CCCC1 [Example 15]

>  <pIC50>
5.60

$$$$
>  <molecule>
Cc1c(F)cccc1[C@]1(C(=O)NO)CC[C@@H](N2CCOCC2)C1 (relative stereo) [Example 89]

>  <pIC50>
5.96

$$$$

Problem: Item Cc1c(F)cccc1[C@]1(C(=O)NO)CC[C@@H](c2cnn(C(F)F)c2)C1 (relative stereo) [Example 46] : provide pIC50
Result: 7.02

Problem: Answer with the recorded pIC50 of Cc1c(F)cccc1[C@]1(C(=O)NO)CC[C@H](c2ccc3cn(C(F)F)nc3c2)C1 (relative stereo) [Example 66] only.
Result: 6.66

Problem: Name the recorded pIC50 of the molecule listed here: Cc1c(F)cccc1[C@]1(C(=O)NO)CC[C@H](OCc2ccc(F)cc2)C1 [Example 97]
Result: 6.62

Problem: Report measured pIC50; entry is Cc1c(F)cccc1[C@]1(C(=O)NO)CC[C@@H](c2cc(F)cnc2C2CC2)C1 [Example 43]
Result: 6.62

###

Listed here: compounds with reported pIC50 for human catalytic domain HDAC4 protein (amino acids 648-1032) (Homo sapiens (Human)).
Remember the convention: pIC50 equals -log10 of concentration in molar.

Problem: Fill in pIC50 for Cc1c(F)cccc1[C@]1(C(=O)NO)CC[C@@H](c2ccc3c(F)nn(C)c3c2)C1 (relative stereo) tested with human catalytic domain HDAC4 protein (amino acids 648-1032) (Homo sapiens (Human)).
Result: 6.40

Problem: Find pIC50 for O=C(NO)C1(c2ccccc2C(F)(F)F)CCCC1 on human catalytic domain HDAC4 protein (amino acids 648-1032) (Homo sapiens (Human)) and write it down.
Result: 4.96

Problem: Report value only: pIC50, human catalytic domain HDAC4 protein (amino acids 648-1032) (Homo sapiens (Human)), Cc1c(F)cccc1[C@]1(C(=O)NO)CC[C@@H](c2cc3c(cnn3C)cc2F)C1
Result: 6.82

Problem: Using human catalytic domain HDAC4 protein (amino acids 648-1032) (Homo sapiens (Human)) as the test system, report measured pIC50 of O=C(NO)C1(c2ccccc2)CCCC1 .
Result: 4.94

Problem: Please report pIC50 with human catalytic domain HDAC4 protein (amino acids 648-1032) (Homo sapiens (Human)) for item Cc1c(F)cccc1[C@]1(C(=O)NO)CC[C@H](Oc2ccccc2)C1 .
Result: 6.89

###

studyTarget: human catalytic domain HDAC4 protein (amino acids 648-1032) (Homo sapiens (Human), UniProt P56524)
Parameter: pIC50. Scope: all listed entries.
The meaning of pIC50 here: minus log10 of the concentration in molar units.

See these solved cases before continuing.
>  <compound>
Cc1c(F)cccc1[C@]1(C(=O)NO)CC[C@H](c2ccn3ccnc3c2)C1 (relative stereo) [Example 58]

>  <testResult>
7.09

$$$$
>  <compound>
Cc1c(F)cccc1[C@]1(C(=O)NO)CC[C@@H](Oc2cncc(F)c2)C1 [Example 93]

>  <testResult>
6.70

$$$$

Problem: Provide measured pIC50 value, entry: Cc1c(F)cccc1[C@]1(C(=O)NO)CC[C@H](c2ccc3ncn(C)c3c2)C1 (relative stereo) [Example 71]
Result: 7.23
